Test system: MDA-MB-435
Assay: NCI 60 human tumor cell line screen (SRB)
Type: cell-based
Details: MDA-MB-435 (Melanoma); 48 h
Description: […] Following drug addition, the plates are incubated for an additional 48 h at 37° C., 5% CO2, 95% air, and 100% relative humidity. […] Bound stain is subsequently solubilised with 10 mM trizma base, and the absorbance is read on an automated plate reader at a wavelength of 515 nm. […] Percentage growth inhibition is calculated as: [(Ti−Tz)/(C−Tz)]×100 for concentrations in which Ti>/=Tz and [(Ti−Tz)/Tz]×100 for concentrations in which Ti<Tz. […]
Property: Log10GI50

> print(dat)
                                   compound  recorded.measurement
1  CC(C)C[C@H](NC(=O)[C@H](Cc1ccccc1)NC(=O)[C@H](COC(F)F)NC(=O)CN1CCOCC1)C(=O)[C@@]1(C)CO1 [Example 25]                 −7.75
2  C[C@]1(C(=O)[C@H](Cc2ccccc2)NC(=O)[C@H](Cc2ccccc2)NC(=O)[C@H](COC(F)F)NC(=O)CN2CCOCC2)CO1 [Example 29]                 −7.63
3  C[C@]1(C(=O)[C@H](Cc2ccccc2)NC(=O)[C@H](COC(F)F)NC(=O)[C@H](COC(F)F)NC(=O)CN2CCOCC2)CO1 [Example 26]                 −7.75
4  Cc1ncc(C(=O)N[C@@H](COC(F)F)C(=O)N[C@@H](COC(F)F)C(=O)N[C@@H](Cc2ccccc2)C(=O)[C@@]2(C)CO2)s1 [Example 1]                 −7.43

* * *

test system: HCT-116; test: NCI 60 human tumor cell line screen (SRB); assay type: cell-based; settings: HCT-116 (Colon Cancer); 48 h
Property: Log10LC50

> print(dat)
                              smiles.record  target.or.test.system   property  qualifier  recorded.measurement
1  Cc1ncc(C(=O)N[C@@H](COC(F)F)C(=O)N[C@@H](COC(F)F)C(=O)N[C@@H](Cc2ccccc2)C(=O)[C@@]2(C)CO2)s1                HCT-116  Log10LC50          =                 −6.17
2  C[C@]1(C(=O)[C@H](Cc2ccccc2)NC(=O)[C@H](COC(F)F)NC(=O)[C@H](COC(F)F)NC(=O)CN2CCOCC2)CO1                HCT-116  Log10LC50          =                 −6.55
3  C[C@]1(C(=O)[C@H](Cc2ccccc2)NC(=O)[C@H](Cc2ccccc2)NC(=O)[C@H](COC(F)F)NC(=O)CN2CCOCC2)CO1                HCT-116  Log10LC50          >                 −4.00
4  CC(C)C[C@H](NC(=O)[C@H](Cc1ccccc1)NC(=O)[C@H](COC(F)F)NC(=O)CN1CCOCC1)C(=O)[C@@]1(C)CO1                HCT-116  Log10LC50          =                 −6.55

* * *

test system: HOP-92; assay: NCI 60 human tumor cell line screen (SRB); format: cell-based; settings: HOP-92 (Non-Small Cell Lung Cancer); 48 h
The following compounds are shown together with reported Log10TGI50 values.
Property: Log10TGI50

> print(dat)
                              smiles.record  recorded.measurement
1  C[C@]1(C(=O)[C@H](Cc2ccccc2)NC(=O)[C@H](Cc2ccccc2)NC(=O)[C@H](COC(F)F)NC(=O)CN2CCOCC2)CO1                 −6.55
2  CC(C)C[C@H](NC(=O)[C@H](Cc1ccccc1)NC(=O)[C@H](COC(F)F)NC(=O)CN1CCOCC1)C(=O)[C@@]1(C)CO1                 −7.16
3  C[C@]1(C(=O)[C@H](Cc2ccccc2)NC(=O)[C@H](COC(F)F)NC(=O)[C@H](COC(F)F)NC(=O)CN2CCOCC2)CO1                 −7.16
4  Cc1ncc(C(=O)N[C@@H](COC(F)F)C(=O)N[C@@H](COC(F)F)C(=O)N[C@@H](Cc2ccccc2)C(=O)[C@@]2(C)CO2)s1                 −5.40
